meta.source: patent US20170044100A1

Consider the following molecules; for each one, report its MICMABA.
System: M. tuberculosis strain H37Rv
Assay: microbe, parasite or virus in culture
Assay type: cell-based, Mycobacterium tuberculosis
Set-up: unit not given here
Settings: H37Rv; MABA; Table 9
Answers are plain numbers.

Please review the following examples before continuing.
# Molecule, Test Result
data = [
    ("NNC(=O)c1ccncc1 [Isoniazid, reference compound]", 0.04),
    ("COc1ccc2cc(C(=O)NC34CC5CC(CC(C5)C3)C4)[nH]c2c1", 0.25),
    ("O=C(NC12CC3CC(CC(C3)C1)C2)c1cc2ccc(O)cc2[nH]1", 2),
    ("O=C(NC1CCCCC1)c1cc2ccccc2[nH]1 [Compound 26, N-Cyclohexyl-1H-indole-2-carboxamide]", 128),
    ("Cc1cc(C)c2cc(C(=O)Nc3ccc(C)c(F)c3)[nH]c2c1", 0.25),
]

Would you mind listing MICMABA for each of the following molecules?
1. Cc1cc(C)c2cc(C(=O)NC34CC5CC(CC(C5)C3)C4)[nH]c2c1
2. Cc1ccc(NC(=O)c2cc3ccccc3[nH]2)cc1F

A:
0.0019
128

Would you mind listing MICMABA for each of the following molecules?
1. O=C(NC1CCCCCCC1)c1cc2c(F)cc(F)cc2[nH]1
2. Cc1cc(C)c2cc(C(=O)NC3CCCCCC3)[nH]c2c1
3. Cc1cc(C)c2cc(C(=O)Nc3ccncc3)[nH]c2c1

A:
0.031
0.0156
32

* * *

Test: in vitro
Conditions: African green monkey, IC50 (cytotoxicity against Vero cells), Table 1
pIC50: −log10 of the molar value.
Measured Parameter: pIC50

# Molecule, Test Result
data = [
    ("Cc1cc(C)c2cc(C(=O)NC3CCCCC3)[nH]c2c1", "< 3.70"),
]

Continue with the molecule presented below.
Q: What value of pIC50 has been reported for the following molecule? Cc1cc(C)c2cc(C(=O)Nc3ccccc3)[nH]c2c1
A: < 3.70

* * *

System: M. tuberculosis strain H37Rv
Assay: microbe, parasite or virus in culture
Format: cell-based, Mycobacterium tuberculosis
Details: Mycobacterium tuberculosis, H37RV
Consider the following molecules; for each one, report its MIC.

Please review the following examples before continuing.
# Molecule, MIC
rows = [
    ("Cc1cc(C)c2cc(C(=O)NC34CC5CC(CC(C5)C3)C4)[nH]c2c1", "0.012 µM"),
    ("Cc1cc(C)c2cc(C(=O)NC3CCN(C(C)C)CC3)[nH]c2c1", "204 µM"),
    ("Cc1cc(C)c2cc(C(=O)NCC3CCCCC3)[nH]c2c1", "0.88 µM"),
]

Would you mind listing MIC for each of the following molecules?
1. Cc1cc(C)c2cc(C(=O)NC3C4CC5CC(C4)CC3C5)[nH]c2c1 (stereo not shown)
2. NNC(=O)c1ccncc1 [Isoniazid, reference compound]
3. Cc1cc(C)c2cc(C(=O)NC3CCN(C)CC3)[nH]c2c1

A:
["0.012 µM", "0.29 µM", "448 µM"]

* * *

Consider the following compounds; for each one, report its IC50 at 72 h.
Test: Cytotoxicity assay on Vero cells (alamar blue)
Conditions: African green monkey, Vero cells (ATCC CCL-81)

Please review the following examples before continuing.
# Compound, Measured Parameter, Test Result
measured = [
    ("Cc1cc(C)c2cc(C(=O)Nc3ccc(C)c(F)c3)[nH]c2c1", "IC50 at 72 h", "> 200 µM"),
    ("Cc1cc(C)c2cc(C(=O)NCC3CCCCC3)[nH]c2c1", "IC50 at 72 h", "> 200 µM"),
    ("Cc1cc(C)c2cc(C(=O)NC3CCCCCC3)[nH]c2c1", "IC50 at 72 h", "> 200 µM"),
]

Would you mind listing IC50 at 72 h for each of the following compounds?
1. Cc1cc(C)c2cc(C(=O)NC3CCCCCCC3)[nH]c2c1
2. Cc1cc(C)c2cc(C(=O)NC34CC5CC(CC(C5)C3)C4)[nH]c2c1
3. Cc1cc(C)c2cc(C(=O)NC3C4CC5CC(C4)CC3C5)[nH]c2c1 (stereo not drawn)

A:
1. 54 µM
2. > 200 µM
3. > 200 µM

* * *

Test system: M. tuberculosis strain H37Rv
Assay: microbe, parasite or virus in culture
Assay type: cell-based, Mycobacterium tuberculosis
Parameters: unit not given here
Conditions: H37Rv; MABA; Table 9
Measured Parameter: MICMABA

# Molecule, MICMABA
data = [
    ("Cc1cc(C)c2c(C(=O)NC34CC5CC(CC(C5)C3)C4)c[nH]c2c1", ">64"),
]

Would you mind listing MICMABA for each of the following compounds?
1. Cc1cc(C)c2c(C(=O)NC3CCCCCC3)c[nH]c2c1
2. Cc1cc(C)c2c(C(=O)NC3CCCCCCC3)c[nH]c2c1

A:
>64
>64

* * *

Tested on: M. tuberculosis strain H37Rv
Experiment: microbe, parasite or virus in culture
Type: cell-based, Mycobacterium tuberculosis
Conditions: Mycobacterium tuberculosis, H37RV
Measured Parameter: MIC (µM)
Numbers only, in µM.

Please review the following examples before continuing.
# Compound, Test Target, MIC, µM
records = [
    ("Cc1cc(C)c2cc(C(=O)NC3CCCCC3)n(C)c2c1 [Compound 18]", "M. tuberculosis strain H37Rv", 450),
    ("Cc1cc(C)c2cc(C(=O)NC3CCCN(C)CC3)[nH]c2c1 (stereo not shown) [Compound 9]", "M. tuberculosis strain H37Rv", 428),
    ("Cc1cc(C)c2cc(C(=O)NC3CCCCCC3)[nH]c2c1 [Compound 11]", "M. tuberculosis strain H37Rv", 0.055),
]

Q: What value of MIC has been reported for the following compound? Cc1cc(C)c2cc(C(=O)NC3CCCCC3)[nH]c2c1 [Compound 3]
A: 0.93
